Below is a list of entries, each paired with its recorded pKd value.
Biological target: Recombinant human his-tagged IGF R extracellular domain protein (human) (UniProt P08069)
Assay: SPR, Ab captured via anti-huIgG Fc, dissociation at pH 6
Please report pKd as the negative decimal logarithm of the molar concentration, giving only the number.

Example results:
>>> experimental_value("VRDN-02075 (antibody, V domains shown) VH: QVQLQESGPGLVKPSETLSLTCTVSGYSITGGYLWNWIRQPPGKGLEWIGYISYHGTNNYKPSLKDRVTISRDTSKNQFSLKLSSVTAADTAVYYCARHGRVFFDYWGQGTLVTVSS VL: DIVMTQSPLSLPVTPGEPASISCRSHQSIVHSNGNTYLQWYLQKPGQSPQLLIYKVSNRLYGVPDRFSGSGSGTDFTLKISRVEAEDVGVYYCFQGSHVHWTFGQGTKVEIK")
9.73
>>> experimental_value("VRDN-02033 (antibody, V domains shown) VH: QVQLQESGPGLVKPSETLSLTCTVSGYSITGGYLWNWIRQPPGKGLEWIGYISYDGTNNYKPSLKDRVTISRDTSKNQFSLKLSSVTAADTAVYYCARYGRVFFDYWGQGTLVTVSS VL: DIVMTQSPLSLPVTPGEPASISCRSSQHIVHSNGNTYLQWYLQKPGQSPQLLIYKVSNRLYGVPDRFSGSGSGTDFTLKISRVEAEDVGVYYCFQGSHVPWTFGQGTKVEIK")
8.92

Next binder, pKd to be filled in.
Reported pKd for VRDN-02056 (antibody, V domains shown) VH: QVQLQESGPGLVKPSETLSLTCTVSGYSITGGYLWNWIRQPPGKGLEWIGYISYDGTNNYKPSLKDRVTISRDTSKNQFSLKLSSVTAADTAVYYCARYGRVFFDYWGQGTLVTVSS VL: DIVMTQSPLSLPVTPGEPASISCRSSQSIVHSNGNTYLQWYLQKPGQSPQLLIYKVSNRLYGVPDRFSGSGSGTDFTLKISRVEAEDVGVYYCFQGSHVHWTFGQGTKVEIK was 8.95

From: patent US20240360227A1
